I'd be grateful if you could share measured activation for these entries.
- MEASURED ON: ACKR3 (Homo sapiens)
- Sequence (P25106 whole entry): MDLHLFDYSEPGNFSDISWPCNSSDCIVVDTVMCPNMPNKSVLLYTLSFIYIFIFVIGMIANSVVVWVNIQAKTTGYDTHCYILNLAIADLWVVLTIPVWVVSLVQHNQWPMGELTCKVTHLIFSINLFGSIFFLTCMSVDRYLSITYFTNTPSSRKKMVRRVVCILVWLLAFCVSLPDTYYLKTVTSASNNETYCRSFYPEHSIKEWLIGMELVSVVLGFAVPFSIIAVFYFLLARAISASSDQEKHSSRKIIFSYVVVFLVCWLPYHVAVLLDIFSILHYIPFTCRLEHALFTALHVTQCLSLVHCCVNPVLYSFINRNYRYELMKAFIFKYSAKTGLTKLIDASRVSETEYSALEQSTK
- METHOD DESCRIPTION: cell-based
- Set-up: dose or concentration left out as unconfirmed
- APPLIED CONDITIONS: read-out: ACKR3 activity, ctrl+ = 100, Figure S2a; replicate 2
Starred links: 1 amine or outer side, 2 acyl side, 3 side chain; linkers in the order of their positions; H or OH if unused. Non-standard residues stand in square brackets, D forms with d. Residues, ends and D or L forms follow the SMILES beside them. X1 = N[C@@H](Cc1ccccc1)CN(CC(=O)[*:2])[*:1]
I'd appreciate it if you wrote the number followed by its unit.

Considering CC(C)C[C@H](NC(=O)[C@H](CCCCN)NC(=O)[C@H](CCCN=C(N)N)NC(=O)[C@H](C)NC(=O)[C@H](CO)NC(=O)[C@H](CCCCN)NC(=O)[C@H](CCCN=C(N)N)NC(=O)[C@H](C)NC(=O)CNC(=O)[C@@H](NC(=O)[C@H](Cc1ccccc1)NC(=O)CNC(=O)CNC(=O)[C@@H](N)Cc1ccccc1)[C@@H](C)O)C(=O)N[C@@H](C)C(=O)N[C@@H](CC(N)=O)C(=O)N[C@@H](CCC(N)=O)C(=O)O , its activation with ACKR3 (Homo sapiens) was recorded as 1.08%

Considering CC(C)C[C@H](NC(=O)[C@H](Cc1ccccc1)NC(=O)CNC(=O)CNC(=O)[C@@H](N)Cc1ccc(O)cc1)C(=O)N[C@@H](CCCN=C(N)N)C(=O)N[C@@H](CCCN=C(N)N)C(=O)N[C@@H](CCC(N)=O)C(=O)N[C@@H](Cc1ccccc1)C(=O)N[C@@H](CCCCN)C(=O)N[C@H](C(=O)N[C@H](C(=O)N[C@H](C(=O)O)[C@@H](C)O)C(C)C)C(C)C , its activation with ACKR3 (Homo sapiens) was recorded as 63.5%

Considering C[C@H](NC(=O)CNC(=O)[C@@H](NC(=O)[C@H](Cc1ccccc1)NC(=O)CNC(=O)CNC(=O)[C@@H](N)Cc1ccccc1)[C@@H](C)O)C(=O)N[C@@H](CCCNC(=N)N)C(=O)N[C@@H](CCCCN)C(=O)N[C@@H](CO)C(=O)N[C@@H](C)C(=O)N[C@@H](CCCNC(=N)N)C(=O)N[C@@H](CCCCN)C(N)=O , its activation with ACKR3 (Homo sapiens) was recorded as 20.3%

Considering CC[C@H](C)[C@H](NC(=O)[C@H](CCCNC(=N)N)NC(=O)[C@H](CCCNC(=N)N)NC(=O)[C@H](CC(C)C)NC(=O)[C@H](Cc1ccccc1)NC(=O)CNC(=O)CN)C(=O)N[C@@H](CCCNC(=N)N)C(=O)N1CCC[C@H]1C(=O)N[C@@H](CCCCN)C(=O)N[C@@H](CC(C)C)C(=O)N[C@@H](CCCCN)C(=O)N[C@@H](Cc1c[nH]c2ccccc12)C(=O)N[C@@H](CC(=O)O)C(=O)N[C@@H](CC(N)=O)C(=O)N[C@@H](CCC(N)=O)C(=O)O , its activation with ACKR3 (Homo sapiens) was recorded as 26.1%

Considering CSCC[C@H](NC(=O)[C@H](Cc1ccccc1)NC(=O)CNC(=O)CNC(=O)[C@@H](N)Cc1ccc(O)cc1)C(=O)N[C@@H](CCCNC(=N)N)C(=O)N[C@@H](CCCNC(=N)N)C(=O)N[C@H](C(N)=O)C(C)C , its activation with ACKR3 (Homo sapiens) was recorded as 55.3%

Considering C[C@H](NC(=O)CNC(=O)[C@@H](NC(=O)[C@H](Cc1ccccc1)NC(=O)CNC(=O)CNC[C@@H](N)Cc1ccccc1)[C@@H](C)O)C(=O)N[C@@H](CCCNC(=N)N)C(=O)N[C@@H](CCCCN)C(=O)N[C@@H](CO)C(=O)N[C@@H](C)C(=O)N[C@@H](CCCNC(=N)N)C(=O)N[C@@H](CCCCN)C(N)=O [FG Nociceptin 1-13] (H-[X1]GFTGARKSARK-NH2) , its activation with ACKR3 (Homo sapiens) was recorded as 58.4%

Considering CC[C@H](C)[C@H](NC(=O)[C@H](CCCNC(=N)N)NC(=O)[C@H](CCCNC(=N)N)NC(=O)[C@H](CC(C)C)NC(=O)[C@H](Cc1ccccc1)NC(=O)CNC(=O)CNC(=O)[C@@H](N)Cc1ccc(O)cc1)C(=O)N[C@@H](CCCNC(=N)N)C(=O)N1CCC[C@H]1C(=O)N[C@@H](CCCCN)C(=O)N[C@@H](CC(C)C)C(=O)N[C@@H](CCCCN)C(=O)N[C@@H](Cc1c[nH]c2ccccc12)C(=O)N[C@@H](CC(=O)O)C(=O)N[C@@H](CC(N)=O)C(=O)N[C@@H](CCC(N)=O)C(=O)O , its activation with ACKR3 (Homo sapiens) was recorded as 60.7%

* * *

- MEASURED ON: CCR4 (Homo sapiens, UniProt P51679)
- Construct: expressed in transfected cells
- Sequence (P51679 1-360): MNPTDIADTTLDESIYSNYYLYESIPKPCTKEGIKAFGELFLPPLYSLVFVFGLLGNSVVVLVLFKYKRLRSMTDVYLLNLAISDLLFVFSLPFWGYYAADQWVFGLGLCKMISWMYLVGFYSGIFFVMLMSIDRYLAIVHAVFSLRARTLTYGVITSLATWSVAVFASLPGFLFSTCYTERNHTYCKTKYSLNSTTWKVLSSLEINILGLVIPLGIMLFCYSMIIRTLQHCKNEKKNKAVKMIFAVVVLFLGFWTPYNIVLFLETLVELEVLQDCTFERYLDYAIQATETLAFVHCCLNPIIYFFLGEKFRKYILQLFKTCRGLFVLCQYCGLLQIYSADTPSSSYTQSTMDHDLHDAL
- METHOD DESCRIPTION: Figure S2a opioid peptide screen on chemokine receptors
- Format: cell-based
- Set-up: dose or concentration left out as unconfirmed
- APPLIED CONDITIONS: replicate 3, read-out: CCR4 activity, ctrl+ = 100
Starred links: 1 amine or outer side, 2 acyl side, 3 side chain; linkers in the order of their positions; H or OH if unused. Non-standard residues stand in square brackets, D forms with d. Residues, ends and D or L forms follow the SMILES beside them. X1 = N[C@@H](Cc1ccccc1)CN(CC(=O)[*:2])[*:1]
MEASURE: activation
I'd appreciate it if you wrote the number followed by its unit.

Considering C[C@H](NC(=O)CNC(=O)[C@@H](NC(=O)[C@H](Cc1ccccc1)NC(=O)CNC(=O)CNC[C@@H](N)Cc1ccccc1)[C@@H](C)O)C(=O)N[C@@H](CCCNC(=N)N)C(=O)N[C@@H](CCCCN)C(=O)N[C@@H](CO)C(=O)N[C@@H](C)C(=O)N[C@@H](CCCNC(=N)N)C(=O)N[C@@H](CCCCN)C(N)=O [FG Nociceptin 1-13] (H-[X1]GFTGARKSARK-NH2) , its activation with CCR4 (Homo sapiens, UniProt P51679) was recorded as -2.08%

* * *

- MEASURED ON: ACKR4 (Homo sapiens)
- Sequence (Q9NPB9 whole entry): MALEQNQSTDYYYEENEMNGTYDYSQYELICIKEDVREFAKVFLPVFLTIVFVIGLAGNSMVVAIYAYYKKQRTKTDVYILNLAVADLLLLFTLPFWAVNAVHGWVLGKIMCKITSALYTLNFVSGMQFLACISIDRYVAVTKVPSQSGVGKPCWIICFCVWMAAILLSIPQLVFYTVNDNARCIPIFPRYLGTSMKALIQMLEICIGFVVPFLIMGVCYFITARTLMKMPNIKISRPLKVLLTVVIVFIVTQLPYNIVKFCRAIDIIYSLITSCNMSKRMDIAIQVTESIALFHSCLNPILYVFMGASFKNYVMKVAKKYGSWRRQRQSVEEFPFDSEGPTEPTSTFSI
- METHOD DESCRIPTION: Figure S2a opioid peptide screen on chemokine receptors
- Parameters: dose or concentration left out as unconfirmed
- APPLIED CONDITIONS: read-out: ACKR4 activity, ctrl+ = 100, Figure S2a; replicate 3
Starred links: 1 amine or outer side, 2 acyl side, 3 side chain; linkers in the order of their positions; H or OH if unused. Non-standard residues stand in square brackets, D forms with d. Residues, ends and D or L forms follow the SMILES beside them. X1 = N[C@@H](Cc1ccccc1)CN(CC(=O)[*:2])[*:1]
MEASURE: activation (%)
Form entry: value (%) — number only.

So, CC(C)C[C@H](NC(=O)[C@H](Cc1ccccc1)NC(=O)CNC(=O)CNC(=O)[C@@H](N)Cc1ccc(O)cc1)C(=O)N[C@@H](CCCN=C(N)N)C(=O)N[C@@H](CCCN=C(N)N)C(=O)N[C@@H](CCC(N)=O)C(=O)N[C@@H](Cc1ccccc1)C(=O)N[C@@H](CCCCN)C(=O)N[C@H](C(=O)N[C@H](C(=O)N[C@H](C(=O)O)[C@@H](C)O)C(C)C)C(C)C ? Its activation was 0.166

So, C[C@H](NC(=O)CNC(=O)[C@@H](NC(=O)[C@H](Cc1ccccc1)NC(=O)CNC(=O)CNC[C@@H](N)Cc1ccccc1)[C@@H](C)O)C(=O)N[C@@H](CCCNC(=N)N)C(=O)N[C@@H](CCCCN)C(=O)N[C@@H](CO)C(=O)N[C@@H](C)C(=O)N[C@@H](CCCNC(=N)N)C(=O)N[C@@H](CCCCN)C(N)=O [FG Nociceptin 1-13] (H-[X1]GFTGARKSARK-NH2) ? Its activation was 0.45

So, C[C@H](NC(=O)CNC(=O)[C@@H](NC(=O)[C@H](Cc1ccccc1)NC(=O)CNC(=O)CNC(=O)[C@@H](N)Cc1ccccc1)[C@@H](C)O)C(=O)N[C@@H](CCCNC(=N)N)C(=O)N[C@@H](CCCCN)C(=O)N[C@@H](CO)C(=O)N[C@@H](C)C(=O)N[C@@H](CCCNC(=N)N)C(=O)N[C@@H](CCCCN)C(N)=O ? Its activation was 1.05

So, CC[C@H](C)[C@H](NC(=O)[C@H](CCCNC(=N)N)NC(=O)[C@H](CCCNC(=N)N)NC(=O)[C@H](CC(C)C)NC(=O)[C@H](Cc1ccccc1)NC(=O)CNC(=O)CNC(=O)[C@@H](N)Cc1ccc(O)cc1)C(=O)N[C@@H](CCCNC(=N)N)C(=O)N1CCC[C@H]1C(=O)N[C@@H](CCCCN)C(=O)N[C@@H](CC(C)C)C(=O)N[C@@H](CCCCN)C(=O)N[C@@H](Cc1c[nH]c2ccccc12)C(=O)N[C@@H](CC(=O)O)C(=O)N[C@@H](CC(N)=O)C(=O)N[C@@H](CCC(N)=O)C(=O)O ? Its activation was 0.188

Taken from paper PMC7305236.
